- measured target: Voltage-gated inwardly rectifying potassium channel KCNH2 (Homo sapiens) (UniProt Q12809)
- Sequence (Q12809 whole entry, looked up): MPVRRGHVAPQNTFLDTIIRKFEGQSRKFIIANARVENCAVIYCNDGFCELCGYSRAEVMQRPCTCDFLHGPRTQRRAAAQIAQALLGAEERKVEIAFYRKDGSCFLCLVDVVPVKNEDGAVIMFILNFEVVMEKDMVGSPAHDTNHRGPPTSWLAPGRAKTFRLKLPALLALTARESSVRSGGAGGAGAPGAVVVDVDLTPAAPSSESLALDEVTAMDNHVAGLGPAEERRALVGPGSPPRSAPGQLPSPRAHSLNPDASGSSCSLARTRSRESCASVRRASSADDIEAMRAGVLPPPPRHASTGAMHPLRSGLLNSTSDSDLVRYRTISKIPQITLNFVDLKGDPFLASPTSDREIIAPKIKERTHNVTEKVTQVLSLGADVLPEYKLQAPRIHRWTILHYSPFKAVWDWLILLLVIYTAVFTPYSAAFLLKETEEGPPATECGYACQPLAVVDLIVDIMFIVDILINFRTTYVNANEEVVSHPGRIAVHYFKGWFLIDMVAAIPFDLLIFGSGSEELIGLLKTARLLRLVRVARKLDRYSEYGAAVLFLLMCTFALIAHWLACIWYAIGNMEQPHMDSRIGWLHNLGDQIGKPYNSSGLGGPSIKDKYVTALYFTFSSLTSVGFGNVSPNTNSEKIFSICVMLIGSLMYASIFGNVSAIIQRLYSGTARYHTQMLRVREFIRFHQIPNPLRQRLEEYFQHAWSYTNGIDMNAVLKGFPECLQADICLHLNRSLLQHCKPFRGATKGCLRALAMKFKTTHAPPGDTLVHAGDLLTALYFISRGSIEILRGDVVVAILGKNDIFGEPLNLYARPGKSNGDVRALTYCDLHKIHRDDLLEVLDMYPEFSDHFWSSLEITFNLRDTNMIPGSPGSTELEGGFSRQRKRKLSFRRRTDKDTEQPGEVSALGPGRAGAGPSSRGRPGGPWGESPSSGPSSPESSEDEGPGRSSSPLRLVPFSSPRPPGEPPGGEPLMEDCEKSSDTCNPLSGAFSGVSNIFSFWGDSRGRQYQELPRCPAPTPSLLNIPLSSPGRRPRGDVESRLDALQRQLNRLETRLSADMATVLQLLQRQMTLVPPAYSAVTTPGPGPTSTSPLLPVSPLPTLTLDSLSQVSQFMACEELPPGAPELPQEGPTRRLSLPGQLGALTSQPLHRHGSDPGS
- experimental protocol: hERG protection against dofetilide inhibition, confirmation, cell-based, thallium flux, duplicate retest, dofetilide IC70 (AID 1835)
- condition set: hERG cell line, FluxOR thallium flux, dofetilide-blocked; at 10 µM; active compounds read high
Screen size: about 2,400 compounds; about 750 (31%) were called active. The list shows a part of the results.
value type: activity increase over dofetilide control, less the hit threshold (%)
One number for each entry, in %.

Find the measured activity increase over dofetilide control, less the hit threshold: item COC(=O)c1cc2sc(Cl)cc2n1CC(=O)NCC1CCCO1 (stereo unspecified) , target or system Voltage-gated inwardly rectifying potassium channel KCNH2 (Homo sapiens) (UniProt Q12809).
-8

Find the measured activity increase over dofetilide control, less the hit threshold: item C=CCN(c1ccc(C(=O)NC(C)C)cc1)S(C)(=O)=O , target or system Voltage-gated inwardly rectifying potassium channel KCNH2 (Homo sapiens) (UniProt Q12809).
-10

Find the measured activity increase over dofetilide control, less the hit threshold: item O=c1[nH]c2ccc(S(=O)(=O)NCc3ccccc3)cc2[nH]1 , target or system Voltage-gated inwardly rectifying potassium channel KCNH2 (Homo sapiens) (UniProt Q12809).
-5

Find the measured activity increase over dofetilide control, less the hit threshold: item COc1ccc(N(CC(=O)N2CCN(Cc3ccccc3)CC2)S(C)(=O)=O)cc1 , target or system Voltage-gated inwardly rectifying potassium channel KCNH2 (Homo sapiens) (UniProt Q12809).
-16

Find the measured activity increase over dofetilide control, less the hit threshold: item CS(=O)(=O)N(Cc1ccccc1)c1ccc(C(=O)Nc2ccc(C(N)=O)cc2)cc1 , target or system Voltage-gated inwardly rectifying potassium channel KCNH2 (Homo sapiens) (UniProt Q12809).
82

Next compound, please.
Find the measured activity increase over dofetilide control, less the hit threshold: item O=[N+]([O-])c1cc(F)c2cccnc2c1O , target or system Voltage-gated inwardly rectifying potassium channel KCNH2 (Homo sapiens) (UniProt Q12809).
-6

====

- measured target: Voltage-gated inwardly rectifying potassium channel KCNH2 (Homo sapiens) (UniProt Q12809)
- experimental protocol: hERG protection against dofetilide inhibition, confirmation, cell-based, thallium flux, duplicate retest, dofetilide IC70 (AID 1835)
- condition set: hERG cell line, FluxOR thallium flux, dofetilide-blocked; at 10 µM; active compounds read high
About 750 (31%) of roughly 2,400 compounds were called active. Some of the results follow.
value type: activity increase over dofetilide control, less the hit threshold (%)
One number for each entry, in %.

Reference set (5 entries):
Form field: reported activity increase over dofetilide control, less the hit threshold of Cc1ccc(-c2nnn(CC(=O)N(CC3CCCO3)C(C(=O)NC3CCCC3)c3ccc(O)cc3)n2)o1 (centres undefined)
-7

Form field: reported activity increase over dofetilide control, less the hit threshold of CC(C)c1ccc(CNc2nc3nc4c(c(=O)n3[nH]2)CCC4)cc1
-6

Form field: reported activity increase over dofetilide control, less the hit threshold of COCCNC(=O)C(c1ccncc1)N(C(=O)Cn1nnc2ccccc21)c1ccc(OC)cc1 (centres undefined)
-9

Form field: reported activity increase over dofetilide control, less the hit threshold of C=CCn1c(O)c(N=NC(=S)Nc2ccccc2F)c2cc(S(=O)(=O)N3CCOCC3)ccc21
0

Form field: reported activity increase over dofetilide control, less the hit threshold of S=c1[nH]c2ccccc2c2ccccc12
-3

Parameters: items (list). Returns: activity increase over dofetilide control, less the hit threshold for each item.
1. Cc1cc(S(=O)(=O)NCC(C)C)ccc1OCC(=O)NCc1ccccn1
2. CSc1ccccc1NC(=S)NCc1ccc(Cl)cc1
3. COC(=O)c1ccc(/C=C/c2ccc3cccc(OC)c3n2)cc1
4. COC(=O)C1=C(C)NC2=C(C(=O)CCC2)C1c1ccc(-c2ccsc2C(=O)OC)o1 (centres undefined)
5. O=C1NCCN1Cc1ccccc1F

1. -29
2. -15
3. -7
4. 26
5. -20

Parameters: items (list). Returns: activity increase over dofetilide control, less the hit threshold for each item.
1. C/C(Cl)=C\Cn1c(O)c(N=NC(N)=S)c2cc(Br)ccc21
2. S=c1nc(C2CC2)[nH]c2ccccc12

49
34

Parameters: items (list). Returns: activity increase over dofetilide control, less the hit threshold for each item.
1. C/C(=N\Nc1nc2ccccc2s1)c1ccc(Br)s1
2. CCn1ccnc1CN1CCCC(CO)(Cc2cccc(OC)c2)C1 (centres undefined)
3. C=CCOc1ccccc1/C=c1\sc2nc(=O)c(C)nn2c1=O
4. O=C(COc1ccc2ccccc2c1Br)Nc1cccnc1

1: -11; 2: -11; 3: -7; 4: 31

Parameters: items (list). Returns: activity increase over dofetilide control, less the hit threshold for each item.
1. S=c1[nH]c2cc(-c3ccccc3)ccc2o1
2. CCN(/N=C/c1ccc(Cl)cc1)c1cc(=O)n(C)c(=O)[nH]1
3. O=C(COc1ccc(Cl)cc1Cl)Nc1cccnc1
4. C/C(=N\Nc1nc2ccccc2s1)c1cccs1
5. O=C(COc1ccccc1)Nc1ccc(S(=O)(=O)Nc2ccccn2)cc1
6. O=S(=O)(NCc1ccc(Cl)cc1Cl)c1ccc(N2CCOCC2)nc1
7. CNC(=O)CSc1nnc(-c2ccco2)n1-c1ccc(C)cc1
8. Cc1cc(NC(C)C)n2c(nc3ccccc32)c1C#N

1: 84; 2: -20; 3: -2; 4: -8; 5: -18; 6: -25; 7: -10; 8: -18

====

- measured target: Voltage-gated inwardly rectifying potassium channel KCNH2 (Homo sapiens)
- experimental protocol: hERG protection against dofetilide inhibition, confirmation, cell-based, thallium flux, duplicate retest, dofetilide IC70 (AID 1835)
- condition set: hERG cell line, FluxOR thallium flux, dofetilide-blocked; at 10 µM
Among all 2,400 compounds or so, about 750 (31%) were called active.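 Rule for the calls: active = median signal gain over dofetilide-blocked control wells reaching their mean plus 3 SD, so readout 1 at least 0; inactive = the rest.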 The list shows a part of the results.
Just give me one of these, please: y for active, n for inactive

Solved entries:
Lab log entry: CCCN1C(=O)/C(=C/c2ccc(C)s2)NC1=S — outcome as called in the assay?
y

Lab log entry: CCCN1C(=O)/C(=C/c2ccc3c(c2)OCO3)NC1=S — outcome as called in the assay?
n

Lab log entry: O=C(CCl)NCCN1C(=O)S/C(=C\c2cccnc2)C1=O — outcome as called in the assay?
n

Lab log entry: Cc1cc(C)cc(-n2c(C)cc(/C=N/NC(=O)CN(c3c(C)cccc3C)S(C)(=O)=O)c2C)c1 — outcome as called in the assay?
n

Lab log entry: O=C(CCc1ccccc1)NC(=S)Nc1cc(C(F)(F)F)ccc1N1CCOCC1 — outcome as called in the assay?
n

***
Lab log entry: O=C(NC(=S)Nc1ccccc1N1CCCC1)c1ccc([N+](=O)[O-])cc1 — outcome as called in the assay?
y

Lab log entry: O=C(NC(=S)Nc1cc(C(F)(F)F)ccc1N1CCOCC1)c1ccco1 — outcome as called in the assay?
y

Lab log entry: CCOc1ccc(NC(=O)CS(=O)CC(=O)NC2CCCc3ccccc32)cc1 (centres undefined) — outcome as called in the assay?
n

Lab log entry: Cc1cc(C(=O)NCCN2C(=O)S/C(=C\c3cccs3)C2=O)ccc1[N+](=O)[O-] — outcome as called in the assay?
n

Lab log entry: COc1ccc(COC(=O)C2CCN(S(=O)(=O)c3cccs3)CC2)cc1 — outcome as called in the assay?
n

Lab log entry: CCC(C)NC(=O)c1c(-c2cc(Cl)c(OC)c(Cl)c2)noc1C (centres undefined) — outcome as called in the assay?
n

Lab log entry: Clc1ccc(Nc2nc3cccnc3s2)cc1 — outcome as called in the assay?
n

Lab log entry: CCOc1ccccc1CNC(=O)CNC(=O)c1cccs1 — outcome as called in the assay?
n

Lab log entry: CSc1nc2c(c(=O)[nH]1)C(c1ccc(Cl)cc1)CC(=O)N2 (centres undefined) — outcome as called in the assay?
y

Lab log entry: Cc1ccc(N/C=C/C(=O)c2cccs2)cc1 — outcome as called in the assay?
n

====

Consider the following molecules; for each one, report its activity increase over dofetilide control, less the hit threshold.
- measured target: Voltage-gated inwardly rectifying potassium channel KCNH2 (Homo sapiens)
- experimental protocol: hERG protection against dofetilide inhibition, confirmation, cell-based, thallium flux, duplicate retest, dofetilide IC70 (AID 1835)
- condition set: hERG cell line, FluxOR thallium flux, dofetilide-blocked; at 10 µM; active compounds read high
Screen size: about 2,400 compounds; about 750 (31%) were called active. The list shows a part of the results.
One number for each entry, in %.

Reference set (10 entries):
Form field: reported activity increase over dofetilide control, less the hit threshold of COc1ccc(N2CCN(C(=S)Nc3cccc(OC)c3)CC2)cc1
-11

Form field: reported activity increase over dofetilide control, less the hit threshold of COC(=O)c1sccc1NS(=O)(=O)c1ccc(F)cc1F
2

Form field: reported activity increase over dofetilide control, less the hit threshold of O=C(NC(=S)NCCc1ccc(Cl)cc1)c1ccco1
-7

Form field: reported activity increase over dofetilide control, less the hit threshold of CCOC(=O)N1CCC(N2C(=O)c3ccccc3C2Nc2cccnc2)CC1 (stereo not drawn)
11

Form field: reported activity increase over dofetilide control, less the hit threshold of CCCn1c(SCC(=O)N2CCN(C(C)=O)CC2)nc2sc3c(c2c1=O)CCC3
20

Form field: reported activity increase over dofetilide control, less the hit threshold of COc1ccc(C2N=C(c3ccccc3)C(C)(C)N2O)cc1 (stereo not drawn)
-16

Form field: reported activity increase over dofetilide control, less the hit threshold of O=C(NC(=S)N1CCN(c2ccc(Cl)cc2[N+](=O)[O-])CC1)c1cccs1
12

Form field: reported activity increase over dofetilide control, less the hit threshold of CC(C)Cc1nnc(NC(=O)Cc2ccccc2[N+](=O)[O-])s1
-5

Form field: reported activity increase over dofetilide control, less the hit threshold of Cc1ccc(-c2cccc(C3CC=CC4C3C(=O)N(Cc3ccccc3)C4c3ccc4ccccc4c3)c2)cc1 (stereo not drawn)
-1

Form field: reported activity increase over dofetilide control, less the hit threshold of O=C(c1ccc2c(c1)N(Cc1ccccc1F)C(=O)c1ccccc1S2(=O)=O)N1CCCC1
-10

Parameters: items (list). Returns: activity increase over dofetilide control, less the hit threshold for each item.
1. S=C(NCCc1ccccc1)NCCN1CCOCC1
2. C=CCSc1nc2sc3c(c2c(=O)n1CC)CCc1ccccc1-3
3. CCOC(=O)c1c(NC(=O)/C=C/c2ccco2)sc(C)c1C
4. Cc1ccnc(N2CCC(C(=O)Nc3ccc(Oc4ccccc4)cc3)CC2)n1
5. CCn1c(SC(C)C(=O)O)nc2sc3c(c2c1=O)CCC3 (stereo not drawn)

[-10, -4, -14, -11, 7]
